biological target: HLA-DR DRB1*1101 (DR11) (Homo sapiens, UniProt P01903+P01911, A100R/A169T/A87E/I96F/K41T/L162R/M171V/P40S/Q125H/Q178H/Q39Y/Q99D/R42S/S66Y/T262R/V115G/W38E); test: biochemical; assay type: binding; conditions: DRB1 *1101
Sequence (P01903 26-254 limits assumed, other chains not shown): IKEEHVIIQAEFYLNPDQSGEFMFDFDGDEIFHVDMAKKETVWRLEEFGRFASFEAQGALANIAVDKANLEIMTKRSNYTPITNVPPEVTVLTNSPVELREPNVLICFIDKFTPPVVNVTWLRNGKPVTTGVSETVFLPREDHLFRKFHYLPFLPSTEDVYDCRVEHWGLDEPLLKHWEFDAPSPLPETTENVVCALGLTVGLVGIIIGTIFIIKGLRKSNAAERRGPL
readout_kind: IC50

Example entries and their recorded answers appear below.
CC[C@H](C)[C@H](NC(=O)[C@@H](N)CCCCN)C(=O)N[C@@H](Cc1ccccc1)C(=O)NCC(=O)N[C@@H](CO)C(=O)N[C@@H](CC(C)C)C(=O)N[C@@H](C)C(=O)N[C@@H](Cc1ccccc1)C(=O)N[C@@H](CC(C)C)C(=O)N1CCC[C@H]1C(=O)N[C@@H](CCC(=O)O)C(=O)N[C@@H](CO)C(=O)N[C@@H](Cc1ccccc1)C(=O)N[C@@H](CC(=O)O)C(=O)NCC(=O)N[C@@H](CC(=O)O)C(=O)N1CCC[C@H]1C(=O)N[C@@H](C)C(=O)O
> 52.6 µM
CC[C@H](C)[C@H](NC(=O)[C@@H]1CCCN1C(=O)[C@H](Cc1c[nH]cn1)NC(=O)[C@@H](NC(=O)[C@@H]1CCCN1C(=O)[C@@H](NC(=O)[C@H](CO)NC(=O)[C@@H]1CCCN1C(=O)[C@H](CC(C)C)NC(=O)CNC(=O)[C@@H](NC(=O)[C@H](C)NC(=O)[C@H](CCC(=O)O)NC(=O)[C@H](C)N)C(C)C)[C@@H](C)CC)C(C)C)C(=O)NCC(=O)O
> 66.7 µM

Entry `CSCC[C@H](NC(=O)[C@H](CC(=O)O)NC(=O)[C@H](Cc1ccc(O)cc1)NC(=O)[C@H](CC(C)C)NC(=O)[C@@H]1CCCN1C(=O)[C@H](Cc1c[nH]cn1)NC(=O)[C@@H]1CCCN1)C(=O)N[C@@H](CO)C(=O)N[C@@H](CC(C)C)C(=O)N[C@@H](CC(C)C)C(=O)N[C@@H](CCCCN)C(=O)N[C@@H](CC(N)=O)C(=O)N[C@@H](CCCNC(=N)N)C(=O)N[C@@H](Cc1ccccc1)C(=O)N[C@@H](CC(C)C)C(=O)O` — recorded IC50 = > 50 µM

* * *

target: HLA-A*3301 (Homo sapiens, UniProt P04439, A270S/D185E/E176V/E277Q/E87N/F33T/G231S/H175R/I121M/I218V/I322F/K168Q/K210R/L300P/L318F/M331R/P217A/Q86R/Q94H/R138Q/T323A/T345S/T97I/V358M/Y195H); experiment: biochemical; type: binding
No end group written: not given here.
readout_kind: IC50 (nM)
Field format: number, assumed nM, no unit text.

Record `TTRYKYLNK` , field IC50: 652

Record `KFSEFRWYRY` . Reported IC50: 856

* * *

Each entry below carries its recorded IC50.
biological target: HLA-A*1101 (Homo sapiens, UniProt P04439, A114D/D185E/E176A/F33Y/L180Q/S129P/T187R); assay: biochemical; assay type: binding
Sequence (P04439 25-365 limits assumed, stated change not applied): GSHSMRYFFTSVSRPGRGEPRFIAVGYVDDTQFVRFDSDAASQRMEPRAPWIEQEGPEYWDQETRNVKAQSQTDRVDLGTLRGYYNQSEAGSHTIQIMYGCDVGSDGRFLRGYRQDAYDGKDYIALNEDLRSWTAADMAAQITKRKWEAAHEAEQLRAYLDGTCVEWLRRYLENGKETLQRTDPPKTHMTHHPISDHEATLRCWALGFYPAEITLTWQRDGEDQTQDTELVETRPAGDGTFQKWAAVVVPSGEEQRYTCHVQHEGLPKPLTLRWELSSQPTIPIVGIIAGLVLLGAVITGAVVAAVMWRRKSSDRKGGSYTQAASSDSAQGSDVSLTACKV
No end group written: not given here.
Remember to put the unit after the number in your answer.

Examples from the recorded data:
KQLCDLLIK
0.065 µM
SVCRSSRTR
0.097 µM
GTGISYGRK
0.077 µM
KVGSLQYLK
0.07 µM
YFVYGTTLEK
0.062 µM

Lab note: next sequence to report on.
Query `TLYQIQVMKR` on HLA-A*1101 (Homo sapiens, UniProt P04439, A114D/D185E/E176A/F33Y/L180Q/S129P/T187R); IC50 returned: 0.164 µM
